- System: renal progenitor cells
- procedure_text: In situ hybridization for lhx1a expression in 10-somite embryos (renal progenitor cell expansion)
- Type: in vivo
- condition_set: 3 μM from 2 hpf, 10-somite embryos
quantity: lhx1a expansion, percent of treated embryos

- O=C(O)CCCCc1ccccc1 [5-phenylpentanoic acid, reference compound]: no expansion
- NC(CCSc1ccccc1)C(=O)O (stereo not shown) [Compound 2-amino-PTBA, 2-amino-PTBA, reference compound]: no expansion
- O=C(O)c1cccc(Sc2ccccc2)c1 [3-(phenylthio)benzoic acid, reference compound]: no expansion

====

- System: zebrafish embryos
- procedure_text: Phenotypic screen for edema and survival in zebrafish larvae at 72 hpf
- condition_set: number of larvae (of 36); 3 μM from 2 hpf, scored at 72 hpf
- Description: The screen was performed in zebrafish embryos using the National Cancer Institute's Developmental Therapeutics Program (NCI/DTP) Diversity Set I. This library contains 1990 compounds selected by pharmacophore modeling to represent the more than 140,000 small molecules maintained in the NCI/DTP Open Repository. […] Individual wells were then scored for a dominant phenotype, representative of at least four of the five embryos. […]
quantity: Edemic 2 (E2)

- COC(=O)CCCSc1ccc(Br)cc1: 1
- CC(C)(C)OC(=O)CCCSc1ccccc1 [tert-butyl 4-(phenylthio)butanoate]: 0
- O=C(O)c1cccc(Sc2ccccc2)c1 [3-(phenylthio)benzoic acid, reference compound]: 0
- O=C(CCCSc1ccc(F)cc1)NO: 0
- O=C(O)CCCCc1ccccc1 [5-phenylpentanoic acid, reference compound]: 0
- CCCC(=O)O [butanoic acid, reference compound]: 0
- O=C(CCCSc1ccc(Cl)cc1)NO: 0
- COC(=O)CCCSc1ccc(F)cc1: 0
- O=C(O)CCCSc1ccc2ccccc2c1 [4-(naphthalen-2-ylthio)butanoic acid, 4-(Naphthalen-2-ylthio)butanoic acid, reference compound]: 0
- O=C(CCCSc1ccccc1)NO [UPHD-00023, N-hydroxy- 4(phenyl- sulfanyl)butanamide]: 20
- Cn1cc(C(=O)Cc2ccccc2)cc1/C=C/C(=O)NO [APHA compound 8, reference compound]: 0
- COC(=O)CCCSc1ccc(OC)cc1: 24
- CC(/C=C/C(=O)NO)=C\[C@@H](C)C(=O)c1ccc(N(C)C)cc1 [TSA, trichostatin A, reference compound]: 0
- O=C(O)CCCOc1ccccc1 [4-phenoxybutanoic acid, reference compound]: 0

====

- System: zebrafish embryos
- procedure_text: Phenotypic screen for edema and survival in zebrafish larvae at 72 hpf
- condition_set: number of larvae (of 36); 3 μM from 2 hpf, scored at 72 hpf
quantity: Edemic 3 (E3)

• Cc1ccc(SCCCC(=O)NO)cc1 = 14
• Nc1ccccc1NC(=O)c1ccc(CNC(=O)OCc2cccnc2)cc1 [MS-275, reference compound] = 0
• CCCC(CCC)C(=O)O [valproic acid, reference compound] = 0
• COC(=O)CCCSc1ccc(OC)cc1 = 9
• O=C(O)CCCOc1ccccc1 [4-phenoxybutanoic acid, reference compound] = 0

====

- Tested on: renal progenitor cells
- procedure_text: In situ hybridization for lhx1a expression in 10-somite embryos (renal progenitor cell expansion)
- Format: in vivo
- condition_set: Danio rerio, percent of embryos with expanded kidney field; 3 μM; read-out: Expansion of Cells (including repeats* and recounts**) 3 μM
Label key: 1 (yes) means responders at 3 µM under 90%; 0 (no) means responders at 3 µM of 90% or more.

• Nc1ccccc1NC(=O)CCCCCSc1ccc2ccccc2c1 = 1 (yes)
• O=C(CCCCCSc1ccc2ccccc2c1)NO = 1 (yes)
• CCCOC(=O)CCCSc1ccccc1 [UPHD-00024, propyl 4-(phenylsulfanyl)butanoate] = 0 (no)
• COC(=O)CCCCCCSc1ccc(F)cc1 = 1 (yes)
• COC(=O)CCCCCS(=O)(=O)c1ccc2ccccc2c1 = 1 (yes)
• O=C(NO)c1ccc(CCSc2ccccc2)cc1 = 1 (yes)
• O=C(CCCCSc1ccccc1)NO = 1 (yes)
• Nc1ccccc1NC(=O)CCCCCSc1nc2ccccc2s1 = 1 (yes)
• O=C(CCCSc1ccc(F)cc1)NO = 0 (no)
• COC(=O)CCCCCSc1ccc2ccccc2c1 = 1 (yes)
• O=C(NO)c1ccc(CCSc2ccc(F)cc2)cc1 = 1 (yes)
• Cn1c(SCCCCCC(=O)Nc2ccccc2N)nc2ccccc21 = 1 (yes)
• COC(=O)CCCSc1ccc(Cl)cc1 = 0 (no)
• Nc1ccccc1NC(=O)CCCCCSc1ncccn1 = 1 (yes)
• COC(=O)CCCCSc1ccccc1 [UPHD-00033, methyl 5-(phenylsulfanyl)pentanoate] = 1 (yes)
• O=C(O)CCCSc1ccccc1 = 0 (no)
• O=C(CCCSc1ccc(Cl)cc1)NO = 0 (no)
• COC(=O)CCCSc1ccc(OC)cc1 = 1 (yes)
• Nc1ccccc1NC(=O)CCCCCCSc1ccc(F)cc1 = 1 (yes)
• COC(=O)CCCSc1ccccc1 = 0 (no)
• Nc1ccccc1NC(=O)CCCSc1ccccc1 = 0 (no)
• COC(=O)CCCCCSc1nc2ccccc2s1 = 1 (yes)

====

The compounds listed here are annotated with their pEC50.
- Tested on: renal progenitor cells
- procedure_text: In situ hybridization for lhx1a expression in 10-somite embryos (renal progenitor cell expansion)
- Type: in vivo
- condition_set: Danio rerio; first pass EC50 from percent expansion (Excel trendline); average where several experiments
pEC50: −log10 of the molar value.
quantity: pEC50

• COC(=O)CCCCCSc1nc2ccccc2s1 = < 5.52
• O=C(NO)c1ccc(CCSc2ccccc2)cc1 = < 5.52
• COC(=O)CCCCCCSc1ccc(F)cc1 = < 5.52
• O=C(CCCCCCSc1ccc(F)cc1)NO = < 5.52
• CCCOC(=O)CCCSc1ccccc1 [UPHD-00024, propyl 4-(phenylsulfanyl)butanoate] = 5.90

====

Measured responders at 3 µM by item
- Tested on: renal progenitor cells
- procedure_text: In situ hybridization for lhx1a expression in 10-somite embryos (renal progenitor cell expansion)
- Type: in vivo
- condition_set: Danio rerio, percent of embryos with expanded kidney field; 3 μM; read-out: Expansion of Cells (including repeats* and recounts**) 3 μM
quantity: responders at 3 µM (%)

- O=C(CCCCCSc1ccc(F)cc1)NO [UPHD-00051]: 86.7
- COC(=O)CCCCCSc1ccc(OC)cc1 [UPHD-00090]: 65
- COC(=O)c1ccc(CSc2ccccc2)cc1 [UPHD-00045]: 17
- COC(=O)CCCCSc1ccc(F)cc1 [UPHD-00032]: 0
- O=C(CCCSc1ccccc1)NO [UPHD-00023, N-hydroxy- 4(phenyl- sulfanyl)butanamide]: 100
- COC(=O)CCCCCSc1ccc(F)cc1 [UPHD-00048]: 100
- COC(=O)CCCCCSc1ccccn1 [UPHD-00065]: 29
- COC(=O)CCCCCCSc1ccccc1 [UPHD-00040, methyl 7-(phenylsulfanyl)heptanoate]: 45
- COC(=O)CCCSc1ccc(C)cc1 [UPHD-00026]: 100
- O=C(CCCCCCSc1ccccc1)NO [UPHD-00041]: 0
- O=C(CCCCCS(=O)(=O)c1ccc2ccccc2c1)NO [UPHD-00069]: 0

====

- System: renal progenitor cells
- procedure_text: In situ hybridization for lhx1a expression in 10-somite embryos (renal progenitor cell expansion)
- Format: in vivo
- condition_set: Danio rerio, percent of embryos with expanded kidney field; 800 nM; read-out: Expansion of Cells (including repeats* and recounts**) 800 nM
Please assign a class to every record based on measured responders at 0.8 µM, with ranges Low = under 5%, Mid = from 5% up to 40%, High = 40% and over

• COC(=O)CCCCCSc1ccc(OC)cc1 = Mid
• O=C(CCCSc1ccc(Cl)cc1)NO = Mid
• COC(=O)CCCCCS(=O)(=O)c1ccc2ccccc2c1 = Low
• O=C(CCCCCSc1ccccc1)NO [UPHD-00050, N-hydroxy-6-(phenyl-sulfanyl)hexanamide] = Low
• Nc1ccccc1NC(=O)CCCCSc1ccccc1 = High
• Nc1ccccc1NC(=O)CCCSc1ccccc1 = High
• COC(=O)c1ccc(CSc2ccccc2)cc1 = Mid
• Nc1ccccc1NC(=O)CCCCCSc1ccc(F)cc1 = High
• O=C(NO)c1ccc(CCSc2ccccc2)cc1 = Low
• Cc1ccc(SCCCC(=O)NO)cc1 = High
• Nc1ccccc1NC(=O)CCCCCSc1ccccc1 = High
• COC(=O)CCCCSc1ccccc1 [UPHD-00033, methyl 5-(phenylsulfanyl)pentanoate] = Low
• COC(=O)CCCCCSc1ccc(F)cc1 = High
• O=C(CCCCCSc1ccc2ccccc2c1)NO = Mid
• COC(=O)c1ccc(CSc2ccc(F)cc2)cc1 = Mid
• COC(=O)CCCCCCSc1ccc(F)cc1 = Mid
• O=C(CCCCCSc1nc2ccccc2s1)NO = Low
• Nc1ccccc1NC(=O)CCCCCSc1ccccn1 = Low
• COC(=O)CCCCSc1ccc(F)cc1 = Low
• O=C(CCCCCSc1ccc(F)cc1)Nc1ccccc1O = High
